- System: A549 NSCLC
- assay-info: NCI tumour cell line growth inhibition, 48 h
experimental-endpoint: TGI

molecule	readout-value
NC(Cc1c[nH]c2cccc(F)c12)C(=O)O (centres undefined)	> 4500 µM
CCSCCCC(=O)O	> 100 µM
CC(=O)c1ccc(Oc2c3ccccc3nc3occc23)cc1	> 100 µM
CN1CCN(Cc2ccccc2)CC1CC#N (centres undefined)	> 100 µM
CCC(C(=O)[C@@H](C)[C@@H](O)[C@H](C)[C@@H]1O[C@@H]([C@@H](CC)C(=O)ONC(=O)c2ccccc2)CC[C@@H]1C)[C@H]1O[C@]2(C=CC(=O)[C@]3(CC[C@@](C)([C@H]4CC[C@](O)(CC)[C@H](C)O4)O3)O2)[C@H](C)C[C@@H]1C (some centres undefined)	1.63 µM

For record "C1=C\CCCCN2CC[C@H]3[C@H](CCCC/C=C\CCCN4C[C@@H](CCCCC/1)C[C@@H]3C4)C2" the listed TGI is 26.8 µM

For record C/C=C1/C(=Cc2[nH]c(C=c3[nH]/c(=C/C4=NC(=O)C(CC)=C4C)c(C)c3CCC(=O)O)c(CCC(=O)O)c2C)NC(=O)C1C (centres undefined) the listed TGI is 27 µM

For record "Oc1cccc2ccc(Br)nc12" the listed TGI is > 100 µM

For record "CC(=N\O)/C(C)=N/O.CC(=N\O)/C(C)=N/O.[Fe].[NH2-].c1c[nH]cn1" the listed TGI is > 100 µM
